- targetOrTestSystem: T1, C-terminal human Regnase-1 (amino acids 301 to 599) with N-terminal FLAG tag and C-terminal BirA recognition … (human, UniProt Q5D1E8 301-599)
- T1 sequence: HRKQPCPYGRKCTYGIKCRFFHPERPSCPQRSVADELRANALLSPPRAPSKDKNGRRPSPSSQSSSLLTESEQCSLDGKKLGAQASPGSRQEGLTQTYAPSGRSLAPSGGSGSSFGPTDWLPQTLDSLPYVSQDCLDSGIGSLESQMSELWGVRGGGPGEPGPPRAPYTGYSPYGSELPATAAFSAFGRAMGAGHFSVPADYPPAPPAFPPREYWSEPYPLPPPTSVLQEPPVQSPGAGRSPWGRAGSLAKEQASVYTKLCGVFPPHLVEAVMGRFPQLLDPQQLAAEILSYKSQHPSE
- assayDetails: cell-based or functional assay
Positions of bridges follow the written chain, without caps; N, C: chain ends. Non-standard residues stand in square brackets, D forms with d. *: point of attachment. Pyrrolidide = C1CCN(*)C1; dNMeA = CN[C@H](C)C(=O)O
Measured 50% inhibition concentration, Regnase-1 phosphorylation by IKKβ (AlphaScreen) of individual entries
parameterMeasured: 50% inhibition concentration, Regnase-1 phosphorylation by IKKβ (AlphaScreen) (µM)

binder	qualifierSymbol	valueMeasured
XNFNSAYYRAIWD (HELM PEPTIDE1{[meA].N.F.N.S.A.Y.Y.R.A.I.W.D.[C1CCN([*:1])C1]}$PEPTIDE1,PEPTIDE1,1:R1-13:R3$$$V2.0; SMILES CC[C@H](C)[C@@H]1NC(=O)[C@H](C)NC(=O)[C@H](CCCNC(=N)N)NC(=O)[C@H](Cc2ccc(O)cc2)NC(=O)[C@H](Cc2ccc(O)cc2)NC(=O)[C@H](C)NC(=O)[C@H](CO)NC(=O)[C@H](CC(N)=O)NC(=O)[C@H](Cc2ccccc2)NC(=O)[C@H](CC(N)=O)NC(=O)[C@H](C)N(C)C(=O)C[C@@H](C(=O)N2CCCC2)NC(=O)[C@H](Cc2c[nH]c3ccccc23)NC1=O) [PP7]	=	3
XDIWFDYWDWD (HELM PEPTIDE1{[meA].D.I.W.F.D.Y.W.D.W.D.[C1CCN([*:1])C1]}$PEPTIDE1,PEPTIDE1,1:R1-11:R3$$$V2.0; SMILES CC[C@H](C)[C@@H]1NC(=O)[C@H](CC(=O)O)NC(=O)[C@H](C)N(C)C(=O)C[C@@H](C(=O)N2CCCC2)NC(=O)[C@H](Cc2c[nH]c3ccccc23)NC(=O)[C@H](CC(=O)O)NC(=O)[C@H](Cc2c[nH]c3ccccc23)NC(=O)[C@H](Cc2ccc(O)cc2)NC(=O)[C@H](CC(=O)O)NC(=O)[C@H](Cc2ccccc2)NC(=O)[C@H](Cc2c[nH]c3ccccc23)NC1=O) [PP17]	=	0.7
[dNMeA]PTSSWYKIWD-Pyrrolidide (lactam N-11) [PP23]	>	62.1
XNFSNSWYNIWD (HELM PEPTIDE1{[meA].N.F.S.N.S.W.Y.N.I.W.D.[C1CCN([*:1])C1]}$PEPTIDE1,PEPTIDE1,1:R1-12:R3$$$V2.0; SMILES CC[C@H](C)[C@@H]1NC(=O)[C@H](CC(N)=O)NC(=O)[C@H](Cc2ccc(O)cc2)NC(=O)[C@H](Cc2c[nH]c3ccccc23)NC(=O)[C@H](CO)NC(=O)[C@H](CC(N)=O)NC(=O)[C@H](CO)NC(=O)[C@H](Cc2ccccc2)NC(=O)[C@H](CC(N)=O)NC(=O)[C@H](C)N(C)C(=O)C[C@@H](C(=O)N2CCCC2)NC(=O)[C@H](Cc2c[nH]c3ccccc23)NC1=O) [PP16]	=	42.2
